assay.protocol: Body and organ weights after subcutaneous administration in beagle dogs (Example 8)
Assay type: in vivo
study.conditions: 30 mg/kg subcutaneous days 1, 3, 5, 8, 15, 22, 29, end of study
measurement.label: Heart weight

Consider the worked cases shown below.
830025 (antisense TTTGTAAATCGAAAGC; 3-10-3 cEt gapmer, further chemistry not given here) [compound 830025] :: 60.5 g
798781 (CGTAAGATTCACAGCA; 3-10-3 cEt gapmer, further chemistry not given here) [compound 798781] :: 53.4 g
790615 (CCAATGAGAATGCTTC; 3-10-3 cEt gapmer, further chemistry not given here) [compound 790615] :: 63.6 g
830121 (AGAATCAAGCCCTGGC; 3-10-3 cEt gapmer, further chemistry not given here) [compound 830121] :: 52.6 g
830037 (antisense CTATTGGCTGATCTGG; 3-10-3 cEt gapmer, further chemistry not given here) [compound 830037] :: 51.9 g

From here, focus on the item given below.
Problem: # input substance: 829994 (GGAGGCAGGGCCGCGA; 3-10-3 cEt gapmer, further chemistry not given here) [compound 829994] ; wanted: its Heart weight
Solution: 57.9 g

----------
Each entry below lists one item and its recorded % inhibition of SMAD7 mRNA expression value.
Tested on: human SMAD7 mRNA
assay.protocol: Dose-dependent inhibition of human SMAD7 mRNA expression in Hep3B cells (Example 3, Study 1 and 2)
Assay type: cell-based
study.conditions: 740 nM, electroporation, approximately 16 hours, Study 2, relative to untreated control cells
Strand notation (5' to 3'): a small letter for the sugar, then the base; units joined by * are phosphorothioate-linked, units joined directly phosphodiester-linked; [ ] holds rarer units or linkages, { } end groups; capitals alone tell only the bases. k = constrained ethyl (cEt); [5mC] = 5-methylcytosine; d = 2'-deoxy (DNA)
Give just the numeric value; % need not be written.

830128 (antisense kA*k[5mC]*k[5mC]*dT*d[5mC]*d[5mC]*dG*dA*dG*dG*d[5mC]*dA*d[5mC]*k[5mC]*kA*k[5mC]) [compound 830128] :: 20

Problem: Which % inhibition of SMAD7 mRNA expression reading was recorded for the substance 799854 (kG*k[5mC]*k[5mC]*dA*dA*dG*dT*dG*dT*d[5mC]*d[5mC]*dA*dT*k[5mC]*kA*kA; antisense) [compound 799854] ?
Solution: 21

Problem: For 799858 (kG*kT*kA*dA*dT*dT*dT*dA*dG*d[5mC]*dA*dA*dT*kT*k[5mC]*k[5mC]; antisense) [compound 799858] , what is its reported % inhibition of SMAD7 mRNA expression?
Solution: 18

Problem: Given 829767 (antisense kG*kG*kA*dG*dG*d[5mC]*dA*d[5mC]*dG*d[5mC]*dG*dG*dT*kG*k[5mC]*kG) [compound 829767] , state its recorded % inhibition of SMAD7 mRNA expression.
Solution: 5

Problem: Name the reported % inhibition of SMAD7 mRNA expression value associated with the substance 799718 (antisense k[5mC]*kT*kG*d[5mC]*dT*dA*dG*dG*dG*dA*dT*dA*d[5mC]*kT*kG*kA) [compound 799718]
Solution: 23

Problem: Which % inhibition of SMAD7 mRNA expression reading was recorded for the substance 830168 (antisense kA*kT*kG*d[5mC]*dT*dT*dT*dT*dA*d[5mC]*dA*d[5mC]*dA*k[5mC]*k[5mC]*k[5mC]) [compound 830168] ?
Solution: 31

Cited source: patent US10517889B2
